Every entry's value here was drawn from the kinase profiling compilation of Christmann-Franck et al. (2016).

- System name: JAK1 JH1 catalytic (human)
- Assay details: KINOMEscan competition binding
- Recorded conditions: compound 10.0 µM
# reported kinase still bound, per cent of control; entries follow
Attribute measured: kinase still bound, per cent of control (%)

compound_string=COc1cc2c(Nc3ccc(NC(=O)c4ccccc4)cc3)ncnc2cc1OCCCN1CCOCC1 numeric_value=100
compound_string=C=CC(=O)Nc1ccc(C(=O)c2sc(Nc3ccc(N4CCN(C)CC4)cc3OC)nc2N)cc1 numeric_value=100
compound_string=CNC(=O)Nc1ccc(-c2nc(N3CC4CCC(C3)O4)c3cnn(C4CCC5(CC4)OCCO5)c3n2)cc1 numeric_value=82
compound_string=N#C/C(=C1/Nc2ccccc2S1)c1ccnc(NCCc2cccnc2)n1 numeric_value=100
compound_string=COc1cc2ncnc(Nc3cccc(Cl)c3)c2cc1OC numeric_value=84
compound_string=CCCS(=O)(=O)Nc1ccc(F)c(C(=O)c2c[nH]c3ncc(Cl)cc23)c1F numeric_value=77
compound_string=CCc1nc(-c2cccc(C)c2)c(-c2ccnc(NC(=O)c3ccccc3)c2)s1 numeric_value=100
compound_string=CCN(CCO)CCCOc1ccc2c(Nc3cc(CC(=O)Nc4cccc(F)c4)[nH]n3)ncnc2c1 numeric_value=100

----------
# reported kinase still bound, per cent of control; entries follow
- System name: ERBB2 (human) (UniProt P04626)
- Sequence (P04626 whole entry, looked up): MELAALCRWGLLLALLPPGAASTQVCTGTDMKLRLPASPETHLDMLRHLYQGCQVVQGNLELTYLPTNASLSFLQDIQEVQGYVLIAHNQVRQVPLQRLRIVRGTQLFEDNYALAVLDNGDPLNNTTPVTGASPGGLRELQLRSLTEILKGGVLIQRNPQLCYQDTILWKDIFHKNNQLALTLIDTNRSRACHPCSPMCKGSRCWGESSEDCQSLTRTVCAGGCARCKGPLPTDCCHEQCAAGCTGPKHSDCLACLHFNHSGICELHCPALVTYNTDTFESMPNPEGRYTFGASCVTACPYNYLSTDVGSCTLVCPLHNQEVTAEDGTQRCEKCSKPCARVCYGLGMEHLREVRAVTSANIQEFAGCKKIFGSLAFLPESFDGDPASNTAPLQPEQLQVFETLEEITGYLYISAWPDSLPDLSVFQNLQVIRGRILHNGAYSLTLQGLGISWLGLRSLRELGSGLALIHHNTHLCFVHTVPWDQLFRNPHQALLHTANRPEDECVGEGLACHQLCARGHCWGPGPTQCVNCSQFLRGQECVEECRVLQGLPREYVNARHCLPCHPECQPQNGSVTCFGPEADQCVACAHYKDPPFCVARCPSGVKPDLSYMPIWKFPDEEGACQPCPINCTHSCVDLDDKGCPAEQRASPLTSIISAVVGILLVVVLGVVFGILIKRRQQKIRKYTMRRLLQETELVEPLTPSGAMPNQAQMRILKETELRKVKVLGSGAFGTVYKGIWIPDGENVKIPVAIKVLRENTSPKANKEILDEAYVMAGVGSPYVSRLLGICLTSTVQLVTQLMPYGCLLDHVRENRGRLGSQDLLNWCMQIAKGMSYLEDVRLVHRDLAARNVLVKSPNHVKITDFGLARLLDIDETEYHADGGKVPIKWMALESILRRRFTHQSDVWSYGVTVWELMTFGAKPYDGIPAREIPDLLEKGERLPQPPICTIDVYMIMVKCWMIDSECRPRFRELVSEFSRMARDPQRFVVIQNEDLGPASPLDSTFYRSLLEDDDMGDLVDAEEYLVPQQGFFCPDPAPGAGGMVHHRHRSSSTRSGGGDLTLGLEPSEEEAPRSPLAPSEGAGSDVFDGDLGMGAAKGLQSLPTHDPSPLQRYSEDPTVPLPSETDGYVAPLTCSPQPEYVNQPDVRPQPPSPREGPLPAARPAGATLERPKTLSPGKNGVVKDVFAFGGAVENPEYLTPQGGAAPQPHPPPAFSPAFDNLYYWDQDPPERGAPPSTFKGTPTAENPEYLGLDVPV
- Assay details: KINOMEscan competition binding
- Recorded conditions: compound 10.0 µM
Attribute measured: kinase still bound, per cent of control (%)

compound=Cc1cn(-c2cc(C(=O)Nc3ccc(C)c(NC(=O)c4ccno4)c3)cc(C(F)(F)F)c2)cn1 system_name="ERBB2 (human) (UniProt P04626)" attribute_measured="kinase still bound, per cent of control" numeric_value=100
compound=CNC(=O)Nc1ccc(-c2nc(N3CC4CCC(C3)O4)c3cnn(C4CCC5(CC4)OCCO5)c3n2)cc1 system_name="ERBB2 (human) (UniProt P04626)" attribute_measured="kinase still bound, per cent of control" numeric_value=88
compound="COc1cc(C)c(Sc2cnc(NC(=O)c3ccc(CNC(C)C(C)C)cc3)s2)cc1C(=O)N1CCN(C(C)=O)CC1 (centres undefined)" system_name="ERBB2 (human) (UniProt P04626)" attribute_measured="kinase still bound, per cent of control" numeric_value=100
compound=CCN(CCO)CCCOc1ccc2c(Nc3cc(CC(=O)Nc4cccc(F)c4)[nH]n3)ncnc2c1 system_name="ERBB2 (human) (UniProt P04626)" attribute_measured="kinase still bound, per cent of control" numeric_value=13
compound=N#C/C(=C1/Nc2ccccc2S1)c1ccnc(NCCc2cccnc2)n1 system_name="ERBB2 (human) (UniProt P04626)" attribute_measured="kinase still bound, per cent of control" numeric_value=8.5
compound=CC(=O)c1c(C)c2cnc(Nc3ccc(N4CCNCC4)cn3)nc2n(C2CCCC2)c1=O system_name="ERBB2 (human) (UniProt P04626)" attribute_measured="kinase still bound, per cent of control" numeric_value=79
compound=CCN1CCN(Cc2ccc(NC(=O)c3ccc(C)c(/C=C/c4cnc5[nH]ccc5c4OC)c3)cc2C(F)(F)F)CC1 system_name="ERBB2 (human) (UniProt P04626)" attribute_measured="kinase still bound, per cent of control" numeric_value=0
compound=CCCS(=O)(=O)Nc1ccc(F)c(C(=O)c2c[nH]c3ncc(Cl)cc23)c1F system_name="ERBB2 (human) (UniProt P04626)" attribute_measured="kinase still bound, per cent of control" numeric_value=78
compound=COc1cc2c(Nc3ccc(NC(=O)c4ccccc4)cc3)ncnc2cc1OCCCN1CCOCC1 system_name="ERBB2 (human) (UniProt P04626)" attribute_measured="kinase still bound, per cent of control" numeric_value=0

----------
- System name: PRPF4B (human) (UniProt Q13523)
- Sequence (Q13523 whole entry, looked up): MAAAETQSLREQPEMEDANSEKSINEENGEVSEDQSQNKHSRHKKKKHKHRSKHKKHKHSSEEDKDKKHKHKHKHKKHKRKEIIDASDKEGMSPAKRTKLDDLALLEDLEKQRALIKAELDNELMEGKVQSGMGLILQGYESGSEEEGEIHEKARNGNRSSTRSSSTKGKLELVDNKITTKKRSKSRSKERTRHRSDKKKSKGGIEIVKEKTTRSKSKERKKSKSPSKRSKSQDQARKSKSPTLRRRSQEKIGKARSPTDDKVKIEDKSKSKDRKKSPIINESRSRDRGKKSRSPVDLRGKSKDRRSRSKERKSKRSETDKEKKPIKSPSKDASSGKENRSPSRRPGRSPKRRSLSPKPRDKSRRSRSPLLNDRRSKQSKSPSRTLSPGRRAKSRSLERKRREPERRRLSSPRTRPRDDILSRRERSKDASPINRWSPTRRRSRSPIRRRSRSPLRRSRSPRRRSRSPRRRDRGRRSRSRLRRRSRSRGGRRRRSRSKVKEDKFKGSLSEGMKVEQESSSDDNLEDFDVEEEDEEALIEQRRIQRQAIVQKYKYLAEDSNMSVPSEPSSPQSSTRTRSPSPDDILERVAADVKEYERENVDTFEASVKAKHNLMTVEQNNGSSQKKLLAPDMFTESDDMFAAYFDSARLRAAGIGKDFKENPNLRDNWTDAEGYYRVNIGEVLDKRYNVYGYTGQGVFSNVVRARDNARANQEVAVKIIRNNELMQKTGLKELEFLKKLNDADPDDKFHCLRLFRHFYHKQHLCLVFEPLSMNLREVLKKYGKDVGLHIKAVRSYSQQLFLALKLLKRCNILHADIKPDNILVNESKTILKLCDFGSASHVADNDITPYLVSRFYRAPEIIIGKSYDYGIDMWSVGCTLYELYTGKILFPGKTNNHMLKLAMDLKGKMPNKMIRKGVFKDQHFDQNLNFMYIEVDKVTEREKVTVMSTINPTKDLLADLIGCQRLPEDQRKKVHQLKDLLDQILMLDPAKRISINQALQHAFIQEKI
- Assay details: KINOMEscan competition binding
- Recorded conditions: compound 10.0 µM
# kinase still bound, per cent of control binned as 0 = under 80%, 1 = from 80% up to 90%, 2 = 90% and over

compound=Cc1cn(-c2cc(C(=O)Nc3ccc(C)c(NC(=O)c4ccno4)c3)cc(C(F)(F)F)c2)cn1 label=2
compound=CCN(CCO)CCCOc1ccc2c(Nc3cc(CC(=O)Nc4cccc(F)c4)[nH]n3)ncnc2c1 label=0
compound=COc1cc2c(Nc3ccc(NC(=O)c4ccccc4)cc3)ncnc2cc1OCCCN1CCOCC1 label=2
compound=CCOc1cc(N2CCC(O)CC2)ccc1Nc1ncc2c(n1)N(C)c1ccccc1C(=O)N2C label=2
compound=CNC(=O)Nc1ccc(-c2nc(N3CC4CCC(C3)O4)c3cnn(C4CCC5(CC4)OCCO5)c3n2)cc1 label=0
compound="CC1=C(C(=O)Nc2cc3cn[nH]c3cc2F)C(c2ccc(C(F)(F)F)cc2)CC(=O)N1 (stereo not given)" label=1

----------
- System name: UniProt P48736
- Sequence (P48736 whole entry, looked up): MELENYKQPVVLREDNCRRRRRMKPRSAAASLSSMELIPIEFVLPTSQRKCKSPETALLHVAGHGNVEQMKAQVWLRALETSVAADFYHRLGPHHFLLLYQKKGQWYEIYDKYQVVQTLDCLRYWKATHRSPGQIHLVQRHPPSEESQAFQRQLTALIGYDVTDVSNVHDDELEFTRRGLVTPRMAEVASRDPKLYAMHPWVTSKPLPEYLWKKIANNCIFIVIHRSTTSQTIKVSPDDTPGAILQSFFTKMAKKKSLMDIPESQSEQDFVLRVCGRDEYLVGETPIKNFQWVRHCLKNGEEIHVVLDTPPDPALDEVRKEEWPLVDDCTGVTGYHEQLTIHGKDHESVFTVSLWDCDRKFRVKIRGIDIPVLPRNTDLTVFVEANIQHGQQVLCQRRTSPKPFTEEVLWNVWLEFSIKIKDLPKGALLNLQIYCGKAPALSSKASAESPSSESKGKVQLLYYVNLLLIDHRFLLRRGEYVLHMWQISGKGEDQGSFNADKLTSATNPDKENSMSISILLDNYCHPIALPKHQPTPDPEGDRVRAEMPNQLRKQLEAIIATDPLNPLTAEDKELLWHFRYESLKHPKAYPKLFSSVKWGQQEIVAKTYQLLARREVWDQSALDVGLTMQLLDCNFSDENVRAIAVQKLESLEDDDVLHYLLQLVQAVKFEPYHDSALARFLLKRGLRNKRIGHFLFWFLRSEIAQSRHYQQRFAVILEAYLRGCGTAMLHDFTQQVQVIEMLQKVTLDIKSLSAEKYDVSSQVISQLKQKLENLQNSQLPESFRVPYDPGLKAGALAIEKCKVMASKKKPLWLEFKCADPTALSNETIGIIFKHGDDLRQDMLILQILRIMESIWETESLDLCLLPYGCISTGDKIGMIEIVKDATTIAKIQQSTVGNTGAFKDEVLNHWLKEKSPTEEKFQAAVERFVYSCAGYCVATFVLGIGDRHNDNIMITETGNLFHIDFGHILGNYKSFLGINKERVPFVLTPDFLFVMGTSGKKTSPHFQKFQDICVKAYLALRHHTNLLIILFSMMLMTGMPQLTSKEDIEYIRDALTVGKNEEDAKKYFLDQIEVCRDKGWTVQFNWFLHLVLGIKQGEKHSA
- Assay details: KINOMEscan competition binding
- Recorded conditions: compound 10.0 µM
# reported kinase still bound, per cent of control; entries follow
Attribute measured: kinase still bound, per cent of control (%)

compound=N#Cc1cc(-c2ccnc(Nc3ccc(-n4cnc(-c5cccnc5)n4)cc3)n2)cc(N2CCOCC2)c1 system_name="UniProt P48736" attribute_measured="kinase still bound, per cent of control" numeric_value=0.75
compound="COc1cc(C)c(Sc2cnc(NC(=O)c3ccc(CNC(C)C(C)C)cc3)s2)cc1C(=O)N1CCN(C(C)=O)CC1 (centres undefined)" system_name="UniProt P48736" attribute_measured="kinase still bound, per cent of control" numeric_value=100
compound=CNC(=O)Nc1ccc(-c2nc(N3CC4CCC(C3)O4)c3cnn(C4CCC5(CC4)OCCO5)c3n2)cc1 system_name="UniProt P48736" attribute_measured="kinase still bound, per cent of control" numeric_value=72
compound=Cc1cn(-c2cc(C(=O)Nc3ccc(C)c(NC(=O)c4ccno4)c3)cc(C(F)(F)F)c2)cn1 system_name="UniProt P48736" attribute_measured="kinase still bound, per cent of control" numeric_value=100

----------
# reported kinase still bound, per cent of control; entries follow
- System name: MAP4K3 (human)
- Assay details: KINOMEscan competition binding
- Recorded conditions: compound 10.0 µM
Attribute measured: kinase still bound, per cent of control (%)

compound_string=O=c1[nH]c2ccccc2n1C1CCN(Cc2ccc(-c3nc4cc5[nH]cnc5cc4nc3-c3ccccc3)cc2)CC1 system_name="MAP4K3 (human)" attribute_measured="kinase still bound, per cent of control" numeric_value=100
compound_string=Cc1cn(-c2cc(C(=O)Nc3ccc(C)c(NC(=O)c4ccno4)c3)cc(C(F)(F)F)c2)cn1 system_name="MAP4K3 (human)" attribute_measured="kinase still bound, per cent of control" numeric_value=100
compound_string=COc1cc(N2CCC(C(N)=O)CC2)ccc1Nc1nc(N)c(Cl)c(Nc2ccccc2S(=O)(=O)C(C)C)n1 system_name="MAP4K3 (human)" attribute_measured="kinase still bound, per cent of control" numeric_value=100
compound_string=C=CC(=O)Nc1ccc(C(=O)c2sc(Nc3ccc(N4CCN(C)CC4)cc3OC)nc2N)cc1 system_name="MAP4K3 (human)" attribute_measured="kinase still bound, per cent of control" numeric_value=60
compound_string=N#C/C(=C1/Nc2ccccc2S1)c1ccnc(NCCc2cccnc2)n1 system_name="MAP4K3 (human)" attribute_measured="kinase still bound, per cent of control" numeric_value=80

----------
- System name: STK4 (human) (UniProt Q13043)
- Sequence (Q13043 whole entry, looked up): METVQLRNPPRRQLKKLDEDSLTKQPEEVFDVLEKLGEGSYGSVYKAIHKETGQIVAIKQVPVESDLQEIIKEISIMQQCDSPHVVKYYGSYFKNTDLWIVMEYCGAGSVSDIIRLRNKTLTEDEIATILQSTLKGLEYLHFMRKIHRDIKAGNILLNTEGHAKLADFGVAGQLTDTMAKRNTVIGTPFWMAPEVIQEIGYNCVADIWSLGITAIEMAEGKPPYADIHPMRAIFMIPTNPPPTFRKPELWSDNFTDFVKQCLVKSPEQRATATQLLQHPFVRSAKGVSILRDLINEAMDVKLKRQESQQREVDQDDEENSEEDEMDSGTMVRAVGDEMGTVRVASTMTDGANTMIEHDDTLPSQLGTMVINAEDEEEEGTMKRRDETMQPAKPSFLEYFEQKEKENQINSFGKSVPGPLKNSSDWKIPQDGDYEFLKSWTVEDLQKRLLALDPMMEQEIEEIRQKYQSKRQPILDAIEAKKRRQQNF
- Assay details: KINOMEscan competition binding
- Recorded conditions: compound 10.0 µM
Attribute measured: kinase still bound, per cent of control (%)

compound=N#C/C(=C1/Nc2ccccc2S1)c1ccnc(NCCc2cccnc2)n1 attribute_measured="kinase still bound, per cent of control" numeric_value=100
compound=CNC(=O)Nc1ccc(-c2nc(N3CC4CCC(C3)O4)c3cnn(C4CCC5(CC4)OCCO5)c3n2)cc1 attribute_measured="kinase still bound, per cent of control" numeric_value=100
compound=COc1cc(N2CCC(C(N)=O)CC2)ccc1Nc1nc(N)c(Cl)c(Nc2ccccc2S(=O)(=O)C(C)C)n1 attribute_measured="kinase still bound, per cent of control" numeric_value=100
compound="COc1cc(C)c(Sc2cnc(NC(=O)c3ccc(CNC(C)C(C)C)cc3)s2)cc1C(=O)N1CCN(C(C)=O)CC1 (stereo not drawn)" attribute_measured="kinase still bound, per cent of control" numeric_value=100
compound=CCN1CCN(Cc2ccc(NC(=O)c3ccc(C)c(/C=C/c4cnc5[nH]ccc5c4OC)c3)cc2C(F)(F)F)CC1 attribute_measured="kinase still bound, per cent of control" numeric_value=21
compound="CC1=C(C(=O)Nc2cc3cn[nH]c3cc2F)C(c2ccc(C(F)(F)F)cc2)CC(=O)N1 (stereo not drawn)" attribute_measured="kinase still bound, per cent of control" numeric_value=100
compound=COc1cc2c(Nc3ccc(NC(=O)c4ccccc4)cc3)ncnc2cc1OCCCN1CCOCC1 attribute_measured="kinase still bound, per cent of control" numeric_value=78
compound=COc1cc2ncnc(Nc3cccc(Cl)c3)c2cc1OC attribute_measured="kinase still bound, per cent of control" numeric_value=100
compound=CCc1nc(-c2cccc(C)c2)c(-c2ccnc(NC(=O)c3ccccc3)c2)s1 attribute_measured="kinase still bound, per cent of control" numeric_value=74
compound=CCN(CCO)CCCOc1ccc2c(Nc3cc(CC(=O)Nc4cccc(F)c4)[nH]n3)ncnc2c1 attribute_measured="kinase still bound, per cent of control" numeric_value=40
compound=CCCS(=O)(=O)Nc1ccc(F)c(C(=O)c2c[nH]c3ncc(Cl)cc23)c1F attribute_measured="kinase still bound, per cent of control" numeric_value=38
compound=N#Cc1cc(-c2ccnc(Nc3ccc(-n4cnc(-c5cccnc5)n4)cc3)n2)cc(N2CCOCC2)c1 attribute_measured="kinase still bound, per cent of control" numeric_value=89
compound=CCOc1cc(N2CCC(O)CC2)ccc1Nc1ncc2c(n1)N(C)c1ccccc1C(=O)N2C attribute_measured="kinase still bound, per cent of control" numeric_value=100
